Known normalised response of a selection of compounds
- Tested on: MDA-MB-436
- assay details: normalised response (% of control), CellTox Green; higher = less cell death (100 = DMSO, 0 = benzethonium chloride kill control)
- experimental conditions: incubation time: 72 h

- compound: "CCN1CCN(c2ccc(Nc3cc(N(C)C(=O)Nc4c(Cl)c(OC)cc(OC)c4Cl)ncn3)cc2)CC1 [NVP-BGJ398] (1000 nM)"
  normalised response, %: 102
- compound: "COc1cccc2cc(-c3nc([C@H]4CC[C@H](C(=O)O)CC4)n4ncnc(N)c34)[nH]c12 [OSI-027] (1000 nM)"
  normalised response, %: 91.9
- compound: "C=CC[C@@H]1/C=C(\\C)C[C@H](C)C[C@H](OC)[C@H]2O[C@@](O)(C(=O)C(=O)N3CCCC[C@H]3C(=O)O[C@H](/C(C)=C/[C@@H]3CC[C@@H](O)[C@H](OC)C3)[C@H](C)[C@@H](O)CC1=O)[C@H](C)C[C@@H]2OC [Tacrolimus] (10000 nM)"
  normalised response, %: 92.5

---

Known normalised response of a selection of compounds
- Test system: CAL-51
- assay details: normalised response (% of control), CellTiter-Glo; higher = more viable cells (100 = DMSO, 0 = benzethonium chloride kill control)
- experimental conditions: incubation time: 72 h

- compound: "Cc1c2oc3c(C)ccc(C(=O)N[C@@H]4C(=O)N[C@H](C(C)C)C(=O)N5CCC[C@H]5C(=O)N(C)CC(=O)N(C)[C@@H](C(C)C)C(=O)O[C@@H]4C)c3nc-2c(C(=O)N[C@@H]2C(=O)N[C@H](C(C)C)C(=O)N3CCC[C@H]3C(=O)N(C)CC(=O)N(C)[C@@H](C(C)C)C(=O)O[C@@H]2C)c(N)c1=O [Dactinomycin] (0.1 nM)"
  tested system: "CAL-51"
  normalised response: "101%"
- compound: "Cc1ccc(F)c(NC(=O)Nc2ccc(-c3cccc4[nH]nc(N)c34)cc2)c1 [Linifanib] (1 nM)"
  tested system: "CAL-51"
  normalised response: "100%"
- compound: "Nc1nc(Cl)nc2c1ncn2[C@H]1C[C@H](O)[C@@H](CO)O1 [Cladribine] (1 nM)"
  tested system: "CAL-51"
  normalised response: "94.2%"
- compound: "Clc1ccc(C(c2ccccc2Cl)C(Cl)Cl)cc1 (centres undefined) [Mitotane] (10 nM)"
  tested system: "CAL-51"
  normalised response: "104%"

---

Known normalised response of a selection of molecules
- System: MDA-MB-231
- assay details: normalised response (% of control), CellTiter-Glo; higher = more viable cells (100 = DMSO, 0 = benzethonium chloride kill control)
- experimental conditions: incubation time: 72 h

- molecule: "S=c1[nH]cnc2nc[nH]c12 [Mercaptopurine] (1000 nM)"
  tested system: "MDA-MB-231"
  normalised response: "66.6%"
- molecule: "CC(=O)O[C@]1(C(C)=O)CC[C@H]2[C@@H]3C=C(C)C4=CC(=O)CC[C@]4(C)[C@H]3CC[C@@]21C [Megestrol acetate] (1 nM)"
  tested system: "MDA-MB-231"
  normalised response: "98.5%"
- molecule: "CN1CCC(COc2cnc(-c3cccc(Cn4nc(-c5cccc(C#N)c5)ccc4=O)c3)nc2)CC1 (1 nM)"
  tested system: "MDA-MB-231"
  normalised response: "95.1%"
- molecule: "N#CC[C@H](C1CCCC1)n1cc(-c2ncnc3[nH]ccc23)cn1 [Ruxolitinib] (10 nM)"
  tested system: "MDA-MB-231"
  normalised response: "95.2%"
- molecule: "CC(=O)O[C@]1(C(C)=O)CC[C@H]2[C@@H]3C=C(C)C4=CC(=O)CC[C@]4(C)[C@H]3CC[C@@]21C [Megestrol acetate] (1000 nM)"
  tested system: "MDA-MB-231"
  normalised response: "118%"
- molecule: "CO[C@H]1C[C@@H]2CC[C@@H](C)[C@@](O)(O2)C(=O)C(=O)N2CCCC[C@H]2C(=O)O[C@H]([C@H](C)C[C@@H]2CC[C@@H](OC(=O)C(C)(CO)CO)[C@H](OC)C2)CC(=O)[C@H](C)/C=C(\\C)[C@@H](O)[C@@H](OC)C(=O)[C@H](C)C[C@H](C)/C=C/C=C/C=C/1C [Temsirolimus] (10 nM)"
  tested system: "MDA-MB-231"
  normalised response: "93%"

---

- Test system: DU-4475
- assay details: normalised viability (% of control), CellTiter-Blue; higher = more viable cells (about 100 = DMSO control)
- experimental conditions: incubation time: 72 h

- compound: "N#CC[C@H](C1CCCC1)n1cc(-c2ncnc3[nH]ccc23)cn1 [Ruxolitinib] (10000 nM)"
  tested system: "DU-4475"
  normalised viability (%): 113
- compound: "COc1cccc2c1C(=O)c1c(O)c3c(c(O)c1C2=O)C[C@@](O)(C(=O)CO)C[C@@H]3O[C@H]1C[C@H](N)[C@H](O)[C@H](C)O1 [Doxorubicin] (1000 nM)"
  tested system: "DU-4475"
  normalised viability (%): -2.19
- compound: "C[C@]1(c2nc3c(C(N)=O)cccc3[nH]2)CCCN1 [Veliparib] (10000 nM)"
  tested system: "DU-4475"
  normalised viability (%): 81
- compound: "C=CC[C@@H]1/C=C(\\C)C[C@H](C)C[C@H](OC)[C@H]2O[C@@](O)(C(=O)C(=O)N3CCCC[C@H]3C(=O)O[C@H](/C(C)=C/[C@@H]3CC[C@@H](O)[C@H](OC)C3)[C@H](C)[C@@H](O)CC1=O)[C@H](C)C[C@@H]2OC [Tacrolimus] (10000 nM)"
  tested system: "DU-4475"
  normalised viability (%): 107

---

- Tested on: CAL-148
- experimental conditions: 72 h
Known EC50, CellTiter-Blue viability of a selection of compounds
measured endpoint: EC50, CellTiter-Blue viability (nM)

- compound: "Nc1nc(Cl)nc2c1ncn2[C@H]1C[C@H](O)[C@@H](CO)O1 [Cladribine]"
  measured endpoint: "EC50, CellTiter-Blue viability"
  unit of measure: "nM"
  measurement qualifier: ">"
  recorded value: 1000
- compound: "COc1cccc2cc(-c3nc([C@H]4CC[C@H](C(=O)O)CC4)n4ncnc(N)c34)[nH]c12 [OSI-027]"
  measured endpoint: "EC50, CellTiter-Blue viability"
  unit of measure: "nM"
  measurement qualifier: "="
  recorded value: 1640
- compound: "C=CCNC1=C2C[C@@H](C)C[C@H](OC)[C@H](O)[C@@H](C)/C=C(\\C)[C@H](OC(N)=O)[C@@H](OC)/C=C\\C=C(/C)C(=O)NC(=CC1=O)C2=O [Tanespimycin]"
  measured endpoint: "EC50, CellTiter-Blue viability"
  unit of measure: "nM"
  measurement qualifier: "="
  recorded value: 65.9
- compound: "CN1CCC(COc2cnc(-c3cccc(Cn4nc(-c5cccc(C#N)c5)ccc4=O)c3)nc2)CC1"
  measured endpoint: "EC50, CellTiter-Blue viability"
  unit of measure: "nM"
  measurement qualifier: "="
  recorded value: 5800
- compound: "COc1cccc2c1C(=O)c1c(O)c3c(c(O)c1C2=O)C[C@@](O)(C(=O)CO)C[C@@H]3O[C@H]1C[C@H](N)[C@H](O)[C@H](C)O1 [Doxorubicin]"
  measured endpoint: "EC50, CellTiter-Blue viability"
  unit of measure: "nM"
  measurement qualifier: "="
  recorded value: 53.3

---

- System: SK-BR-3
- assay details: normalised response (% of control), CellTiter-Glo; higher = more viable cells (100 = DMSO, 0 = benzethonium chloride kill control)
- experimental conditions: incubation time: 72 h
Known normalised response of a selection of compounds

- compound: "Nc1ccn([C@@H]2O[C@H](CO)[C@@H](O)[C@@H]2O)c(=O)n1 [Cytarabine] (10000 nM)"
  tested system: "SK-BR-3"
  normalised response, %: 43
- compound: "CCN1CCN(c2ccc(Nc3cc(N(C)C(=O)Nc4c(Cl)c(OC)cc(OC)c4Cl)ncn3)cc2)CC1 [NVP-BGJ398] (1000 nM)"
  tested system: "SK-BR-3"
  normalised response, %: 97.7
- compound: "CN1CC[C@H](c2c(O)cc(O)c3c(=O)cc(-c4ccccc4Cl)oc23)[C@H](O)C1 [Alvocidib] (10000 nM)"
  tested system: "SK-BR-3"
  normalised response, %: 1.32
- compound: "CN(C)C/C=C/C(=O)Nc1cc2c(Nc3ccc(F)c(Cl)c3)ncnc2cc1O[C@H]1CCOC1 [Afatinib] (1000 nM)"
  tested system: "SK-BR-3"
  normalised response, %: 24.8

---

- Test system: DU-4475
- assay details: normalised viability (% of control), CellTiter-Blue; higher = more viable cells (about 100 = DMSO control)
- experimental conditions: incubation time: 72 h

- compound: "Cc1ccc(F)c(NC(=O)Nc2ccc(-c3cccc4[nH]nc(N)c34)cc2)c1 [Linifanib] (300 nM)"
  normalised viability, %: 105
- compound: "COc1cccc2cc(-c3nc([C@H]4CC[C@H](C(=O)O)CC4)n4ncnc(N)c34)[nH]c12 [OSI-027] (3000 nM)"
  normalised viability, %: 69.1
- compound: "Cc1c2oc3c(C)ccc(C(=O)N[C@@H]4C(=O)N[C@H](C(C)C)C(=O)N5CCC[C@H]5C(=O)N(C)CC(=O)N(C)[C@@H](C(C)C)C(=O)O[C@@H]4C)c3nc-2c(C(=O)N[C@@H]2C(=O)N[C@H](C(C)C)C(=O)N3CCC[C@H]3C(=O)N(C)CC(=O)N(C)[C@@H](C(C)C)C(=O)O[C@@H]2C)c(N)c1=O [Dactinomycin] (300 nM)"
  normalised viability, %: 1.26
- compound: "C[C@]1(c2nc3c(C(N)=O)cccc3[nH]2)CCCN1 [Veliparib] (3000 nM)"
  normalised viability, %: 86.2

All figures here come from the supplement of paper PMC4862054.
